Sourced from PubChem BioAssay (NCI)

System: DU-145 prostate
Procedure Details: NCI tumour cell line growth inhibition, 48 h; in the data active means GI50 below about 0.43 µM; inactive means the rest
Parameter call: string, one of 1 = active, -1 = inactive

> print(dat)
                                   compound  group
1  N/C(=N\O)c1cn(C2OC(CO)C(O)C2O)c2ncnc(N)c12 (centres undefined)      1
2  O=C(c1ccco1)c1c(C(F)(F)F)n([O-])c2cc(Cl)c(Cl)cc2[n+]1=O     -1
3  CC(=O)Nc1ccc(S(=O)(=O)N2C(=O)CCC2C(=O)Nc2ccccc2)cc1 (centres undefined)     -1
4  Nc1nc(N)c2nc(CNc3ccc(C(=O)NC(CCC(=O)O)C(=O)O)cc3)cnc2n1 (centres undefined)      1
5          O=c1[nH]c2c(ccc3cnccc32)c2c1CCC2      1
6  CCCCCCCCCCCCNC(=O)N[C@H](C(=O)N[C@H]1/C=C/OCCNC(=O)/C=C/[C@H](C(C)C)NC1=O)C(C)C     -1
7  CN(C)CCCn1c2c(c3ccc(N4CCNCC4)cc3c1=O)C(=O)c1ccccc1-2      1
8  CN1CC[C@H](N(C)C(=O)N2CC(c3cc(F)ccc3F)=C[C@@]2(CO)c2ccccc2)[C@H](F)C1      1

Request: Given `COc1cc2nc(NC3CCC3)nc(NC3CCN(C(C)C)CC3)c2cc1OC` , state the outcome it received in this test.
Response: -1

Request: Given `COc1ncc(-c2ccc3nc(N)n(-c4ccccc4C(F)(F)F)c(=O)c3c2)cc1S(=O)(=O)Nc1ccc(F)cc1F` , state the outcome it received in this test.
Response: -1
